- protocol: physchem
- details: pH 2, aqueous buffer, thermodynamic from solid, Solubility (pH = 2.0)

>  <compound>
COc1ccc(S(=O)(=O)Nc2cc3c(c4ccccc24)OP(=O)(O)Oc2ccc4ccccc4c2-3)cc1 [Compound 9A]

>  <solubility / µg/mL>
56

$$$$
>  <compound>
COc1ccc(S(=O)(=O)Nc2cc(-c3c(O)ccc4ccccc34)c(OP(=O)(O)O)c3ccccc23)cc1 [Compound 9]

>  <solubility / µg/mL>
1530

$$$$

###

- protocol: Pharmacokinetics in monkeys (TTI-101 in plasma by LC-MS/MS)
- details: male, cynomolgus monkey, iv, 26 mg/kg

>  <sample_smiles>
COc1ccc(S(=O)(=O)Nc2cc(-c3c(O)ccc4ccccc34)c(O)c3ccccc23)cc1

>  <AUC(0-t) [µg·h/mL]>
116

$$$$

###

- protocol: in vivo
- details: male, SD, rat, iv, 21.5 mg/kg

>  <sample_smiles>
COc1ccc(S(=O)(=O)Nc2cc(-c3c(O)ccc4ccccc34)c(O)c3ccccc23)cc1

>  <half-life / h>
2.8

$$$$

###

- protocol: physchem
- details: buffer, pH 7.4
Where a name gives a salt, the structure may show the parent alone.
quantity: half-life at 2 µM (h)

>  <molecule>
CNCCCN(C)C(=O)Oc1c(-c2c(O)ccc3ccccc23)cc(NS(=O)(=O)c2ccc(OC)cc2)c2ccccc12 [Compound 4, hydrochloride]

>  <numeric_value>
1

$$$$

###

- protocol: Pharmacokinetics in monkeys (TTI-101 in plasma by LC-MS/MS)
- details: male, cynomolgus monkey, iv, 26 mg/kg

>  <compound>
COc1ccc(S(=O)(=O)Nc2cc(-c3c(O)ccc4ccccc34)c(O)c3ccccc23)cc1 [TTI-101]

>  <half-life>
144 min

$$$$

###

- protocol: physchem
- details: pH 7.4, aqueous buffer, thermodynamic from solid, Solubility (pH = 7.4)
quantity: solubility (µg/mL)

>  <sample_smiles>
COc1ccc(S(=O)(=O)Nc2cc(-c3c(O)ccc4ccccc34)c(OP(=O)(O)O)c3ccccc23)cc1

>  <numeric_value>
6160

$$$$
